- study_target: T1, extracellular domain polypeptide of a recombinant B7-H3 variant 2 antigen (R&D Systems, Inc., #2318-B3-050/CF) (human, UniProt Q5ZPR3 29-466)
- T1 construct: Bought recombinant protein; also called recombinant B7-H3 antigen; B7-H3 antigen
- T1 sequence: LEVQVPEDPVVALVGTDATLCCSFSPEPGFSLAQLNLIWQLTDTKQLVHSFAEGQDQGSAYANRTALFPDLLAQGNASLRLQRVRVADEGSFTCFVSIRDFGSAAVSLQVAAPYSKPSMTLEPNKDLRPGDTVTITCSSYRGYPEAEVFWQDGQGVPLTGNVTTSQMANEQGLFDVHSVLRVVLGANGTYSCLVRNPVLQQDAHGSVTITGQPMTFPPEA
- experimental_protocol: SPR (Biacore), antibody captured on anti-human IgG, B7-H3 variant 2 extracellular domain as analyte
In this section, each of the binders is paired with its reported pKd.
The scale used: pKd is minus the common logarithm of the concentration in molar units.

{"binder": "humanized M30 antibody M30-H1-L1 (antibody, human IgG1, kappa, V domains shown, Human IgG1/kappa) VH: QVQLVQSGAEVKKPGSSVKVSCKASGYTFTNYVMHWVRQAPGQGLEWMGYINPYNDDVKYNEKFKGRVTITADESTSTAYMELSSLRSEDTAVYYCARWGYYGSPLYYFDYWGQGTLVTVSS VL: EIVLTQSPATLSLSPGERATLSCRASSRLIYMHWYQQKPGQAPRLLIYATSNLASGIPARFSGSGSGTDFTLTISRLEPEDFAVYYCQQWNSNPPTFGQGTKVEIKR", "value": 7.06}

Prompt line: Need pKd of humanized M30 antibody M30-H1-L7 (antibody, human IgG1, kappa, V domains shown, Human IgG1/kappa) VH: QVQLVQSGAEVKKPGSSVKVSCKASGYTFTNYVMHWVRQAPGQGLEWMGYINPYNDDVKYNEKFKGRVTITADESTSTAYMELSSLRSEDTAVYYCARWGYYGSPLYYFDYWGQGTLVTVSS VL: EIVLTQSPATLSLSPGERATLSCRASSRLIYMHWYQQKPGQAPRPLIYATSNLASGIPARFSGSGSGTDYTLTISRLEPEDFAVYYCQQWNSNPPTFGQGTKVEIKR , thanks.
Response line: 8.57

Cited source: patent US20130078234A1
